Each entry below carries its recorded Plant response rating, Poinsettia, Wild.
- Test system: wild poinsettia
- assay_explanation: Test E postemergence
- Format: in vivo, Euphorbia heterophylla
- condition_parameters: Postemergence, 62 g ai/ha, scale 0 to 100
The answer should be a number; do not append a unit.

Study these solved cases before continuing.
N#Cc1cccc(Oc2ncc(Cl)cn2)c1-n1cc(Cl)cn1 55
Clc1cnc(Oc2ccccc2-n2cc(Br)nn2)nc1 50
N#Cc1cnn(-c2c(C#N)cccc2Oc2ncc(Cl)cn2)c1 70

## Task Tell me reported Plant response rating, Poinsettia, Wild for FC(F)(F)c1cnn(-c2c(Br)cccc2Oc2ncc(Cl)cn2)c1 , tested with wild poinsettia.
## Result 50

---

- Tested on: large (Lg) crabgrass
- assay_explanation: Test A preemergence
- Format: in vivo, Digitaria sanguinalis
- condition_parameters: 500 g ai/ha, 0 to 100 scale, 0 no effect, 100 complete control, approx. 10 days
readout_name: Crabgrass, Large plant response rating
Format: numeric value only, no unit, no commentary.

FC(F)(F)c1cnc(Oc2ccccc2-n2ccc(C(F)(F)F)n2)nc1 0

## Task Dear colleague, I am looking for the recorded Crabgrass, Large plant response rating of the following molecule: Clc1cnc(Oc2cc(Cl)ccc2-n2cccn2)nc1
## Result 20

## Task Reported Crabgrass, Large plant response rating, molecule C=C(C)c1cnn(-c2ccccc2Oc2ncc(Cl)cn2)c1 : ____
## Result 60

---

- Tested on: large (Lg) crabgrass
- assay_explanation: Test A preemergence
- Assay type: in vivo, Digitaria sanguinalis
- condition_parameters: 125 g ai/ha, 0 to 100 scale where 0 is no effect and 100 is complete control
readout_name: Plant response rating, Crabgrass, Large

Here are 4 molecules together with their reported answers.
molecule	Plant response rating, Crabgrass, Large
Clc1cnc(Oc2cc(Cl)ccc2-n2cc(Br)cn2)nc1 [Compound 51]	40
FC(F)(F)c1cccc(Oc2ncc(Br)cn2)c1-n1cc(Br)cn1 [Compound 77]	90
Clc1cnc(Oc2ccccc2-n2cc(-c3ccccc3)cn2)nc1 [Compound 22]	20
CC=Cc1cnn(-c2ccccc2Oc2ncc(Cl)cn2)c1 [Compound 27]	0

Proceed to the following item.
## Task What value of Plant response rating, Crabgrass, Large has been recorded for this entry: N#Cc1cnn(-c2ccccc2Oc2ncc(Cl)cn2)c1 [Compound 33]
## Result 90

---

- Tested on: velvetleaf
- assay_explanation: Test A preemergence
- Type: in vivo, Abutilon theophrasti
- condition_parameters: 500 g ai/ha, 0 to 100 scale where 0 is no effect and 100 is complete control
In this section we review reported Velvetleaf plant response rating values for a set of compounds.
Number only, no unit.

COc1cnc(Oc2ccccc2-n2cc(Br)cn2)nc1 100

## Task Consider the compound Cc1cnc(Oc2cccc(C#N)c2-n2cc(C(F)(F)F)cn2)nc1 and give its measured Velvetleaf plant response rating.
## Result 100

## Task Suppose we examine the compound NN=Cc1cccc(Oc2ncc(Cl)cn2)c1-n1cc(Cl)cn1 ; what Velvetleaf plant response rating value has been reported?
## Result 0

## Task Please report the recorded Velvetleaf plant response rating for FC(F)(F)c1cnn(-c2c(Br)cccc2Oc2ncc(Cl)cn2)c1 .
## Result 90

## Task Consider the compound NN=Cc1cccc(Oc2ncc(Cl)cn2)c1-n1cc(Br)cn1 and give its measured Velvetleaf plant response rating.
## Result 10

## Task Can you share its Velvetleaf plant response rating? I mean this compound: O=Cc1cccc(Oc2ncc(Cl)cn2)c1-n1cc(I)cn1
## Result 0
